# assay target: recombinant EsigGOBP1
# assay details: Fluorescence competition binding assay (FCBA) with 1-NPN probe
# condition notes: competitive binding, 1-NPN and EsigGOBP1 both at 2 μM, ligands 2–24 μM, pH 7.4
IC50 reference
Give the value in µM but do not write µM after it.

// below: answered compounds
>>> df
                               compound  measured_result
0                      CC(C)(O)c1ccccc1               22
1                        c1ccc2ccccc2c1             21.5
2        C=CC(=O)OCCCC [Butyl acrylate]             7.18
3                          CCc1ccccc1CC              6.3
4                CC1=CC[C@H](C(C)C)C=C1             7.08
5                C=C(C)[C@H]1CC=C(C)CC1             11.4
6                 CC12CCC(CC1)C(C)(C)O2             10.1
7  CC1=CCC2CC1C2(C)C (stereo not shown)             9.86

Entry under review: C=C1C2CCC(C2)C1(C)C (stereo not shown) . Reported IC50?
7.87

I would be grateful if you could share the reported IC50 for C=C1CCC2CC1C2(C)C (stereo not shown) .
10.5

---

# assay target: recombinant EsigGOBP1
# assay details: Fluorescence competition binding assay (FCBA) with 1-NPN probe
# Set-up: species or system Endoclita signifer
# condition notes: binding curve and Scatchard plots, 1-NPN 2–24 μM, 2 μM EsigGOBP1; read-out: dissociation constant K1-NPN
property measured: pKd
In textbook form, pKd equals minus log to base ten of the concentration in mol/L.

# pKd lookup, item c1ccc(Nc2cccc3ccccc23)cc1 [1-NPN, N-phenyl-1-naphthylamine, reference compound]
5.47

---

# assay target: recombinant EsigGOBP1
# assay details: Fluorescence competition binding assay (FCBA) with 1-NPN probe
# Design: species or system Endoclita signifer
# condition notes: competitive binding against 1-NPN; read-out: calculated Kd
property measured: Kd
Respond with the figure and its unit, in that order.

Completed entries (count: 3):
>>> print(df.to_string())
                 molecule  property_measured  measured_result
0          c1ccc2ccccc2c1                 Kd          2690 nM
1  CC1=CC[C@H](C(C)C)C=C1                 Kd           890 nM
2   CC12CCC(CC1)C(C)(C)O2                 Kd          1270 nM

// below: Kd requested for another molecule
Form field: reported Kd of C=C1C2CCC(C2)C1(C)C (stereo not shown)
990 nM
